Sourced from ChEMBL document CHEMBL2146418

Kindly supply the reported selectivity ratio values for the records listed here.
- testMethodNotes: Therapeutic index, ratio of IC50 for human HMEC1 cells to IC50 for Plasmodium falciparum
- Format: cell-based
- runParameters: HMEC1 cells versus Plasmodium falciparum, read-out: Ratio IC50

Q. Looking for the measured selectivity ratio of `Clc1ccc2c(NC[C@@H]3CCCN4CCCC[C@H]34)ccnc2c1` , can you help?
A. > 1000

Q. Looking for the measured selectivity ratio of `Clc1ccc2c(NC[C@H]3CCCN4CCCC[C@@H]34)ccnc2c1` , can you help?
A. > 1000

Q. Looking for the measured selectivity ratio of Clc1ccc2c(NCC3CCCN4CCCCC34)ccnc2c1 (racemic) , can you help?
A. > 1000

###

- testMethodNotes: Cytotoxicity against human HDF cells after 72 hrs by MTT assay
- Assay type: cell-based
readoutName: pIC50
Formally, pIC50 is defined as -log10 of the concentration c, with c in mol/L.

Q. Looking for the measured pIC50 of `Clc1ccc2c(NC[C@H]3CCCN4CCCC[C@@H]34)ccnc2c1` , can you help?
A. 4.57

Q. Looking for the measured pIC50 of `Clc1ccc2c(NC[C@@H]3CCCN4CCCC[C@H]34)ccnc2c1` , can you help?
A. 4.65

Q. Looking for the measured pIC50 of Clc1ccc2c(NCC3CCCN4CCCCC34)ccnc2c1 (racemic) , can you help?
A. 4.61
